These measurements were taken from the RepoRT retention time repository (doi:10.1021/acs.analchem.7b00925).

assay: HILIC, Merck SeQuant ZIC-HILIC, 100 × 2.1 mm, 3.5 µm, 25 °C, 0.3 mL/min, estimated dead time 0.73 min; A: water + 0.1% formic acid, pH 3; B: acetonitrile + 0.1% formic acid, pH 3; gradient (min/%B) 0/95 1.5/95 13.5/40 15.5/40 29.7/25 33.5/25 34.5/95 41.5/95; details: stereoisomer not certain
quantity: LC retention time (min)

O=C1OC(CO)C(O)C(O)C1O (stereo unspecified) ... 4.49
NC(=O)CCC(NC(=O)Cc1ccccc1)C(=O)O (stereo unspecified) ... 2.63
CC(C)(CO)C(O)C(=O)NCCC(=O)O (stereo unspecified) ... 2.31

a: O=c1cc[nH]c(=S)[nH]1
b: CCC(=O)OC(CC(=O)[O-])C[N+](C)(C)C (stereo unspecified)
c: NC(=O)NCCCC(N)C(=O)O (stereo unspecified)
Descending sort on LC retention time required. Returns: the labels arranged in the requested order.
c, b, a
(c: 8.89 min, b: 4.5 min, a: 1.93 min)

---

experiment: HILIC, Merck SeQuant ZIC-HILIC, 100 × 2.1 mm, 3.5 µm, 25 °C, 0.3 mL/min, estimated dead time 0.73 min; A: water + 0.1% formic acid, pH 3; B: acetonitrile + 0.1% formic acid, pH 3; gradient (min/%B) 0/95 1.5/95 13.5/40 15.5/40 29.7/25 33.5/25 34.5/95 41.5/95; settings: stereoisomer not certain
quantity: LC retention time (min)

1: C[N+](C)(C)C(Cc1c[nH]c2ccccc12)C(=O)[O-] (stereo not given)
2: NC(CCCC(N)C(=O)O)C(=O)O (stereo not given)
3: O=C(O)CNC(=O)C=Cc1ccccc1
4: CNC(=O)c1cccnc1 [N-Methylnicotinamide]
Rank the 4 molecules shown above by LC retention time, smallest number first. Returns: the labels arranged in the requested order.
3, 4, 1, 2

a: Nc1ccc(C(=O)O)c(O)c1
b: C[N+](C)(C)[O-] [Trimethylamine N-oxide]
c: NC(=NCCCC(N)C(=O)O)NC(CC(=O)O)C(=O)O (stereo not given)
rank_up(items): orders items by reported LC retention time in ascending numerical order. Returns: the labels arranged in the requested order.
a, b, c
(a: 1.3 min, b: 6.67 min, c: 11.3 min)

---

test: HILIC, Merck SeQuant ZIC-HILIC, 100 × 2.1 mm, 3.5 µm, 25 °C, 0.3 mL/min, estimated dead time 0.73 min; A: water + 0.1% formic acid, pH 3; B: acetonitrile + 0.1% formic acid, pH 3; gradient (min/%B) 0/95 1.5/95 13.5/40 15.5/40 29.7/25 33.5/25 34.5/95 41.5/95; settings: stereoisomer not certain
quantity: LC retention time (min)

O=C(O)c1c[nH]c2ccccc12 ... 1.46
CCNC(=O)CC[C@H](N)C(=O)O ... 7.58
NCCCCC(N)C(=O)O (stereo not given) ... 12.5

A: O=c1[nH]cccc1O [2,3-Dihydroxypyridine]
B: CC1=NCCC(C(=O)O)N1 (stereo not given)
Name the one with the greater LC retention time value, either A or B as given. Pick one; state its label.
B

I: Oc1cccnc1 [3-Hydroxypyridine]
II: Cn1c(=O)[nH]c2[nH]c(=O)n(C)c2c1=O
III: NCCc1cnc[nH]1
rank_up(items): orders items by reported LC retention time in ascending numerical order. Returns: the labels arranged in the requested order.
II, I, III

P: NC(CSS(=O)(=O)O)C(=O)O (stereo not given) [Cysteine-S-sulfate]
Q: O=C1CC(C(=O)O)NC(=O)N1 (stereo not given) [Dihydroorotic acid]
R: CC(CCC(=O)O)C1CCC2C3C(O)CC4CC(O)CCC4(C)C3CCC12C (stereo not given)
S: CC(CCC(=O)O)C1CCC2C3C(O)CC4CC(O)CCC4(C)C3CC(O)C12C (stereo not given)
Descending sort on LC retention time required. Returns: the labels arranged in the requested order.
P, Q, S, R
